testSystem: LsrK (Salmonella typhimurium, UniProt Q8ZKQ6)
Sequence (Q8ZKQ6 whole entry): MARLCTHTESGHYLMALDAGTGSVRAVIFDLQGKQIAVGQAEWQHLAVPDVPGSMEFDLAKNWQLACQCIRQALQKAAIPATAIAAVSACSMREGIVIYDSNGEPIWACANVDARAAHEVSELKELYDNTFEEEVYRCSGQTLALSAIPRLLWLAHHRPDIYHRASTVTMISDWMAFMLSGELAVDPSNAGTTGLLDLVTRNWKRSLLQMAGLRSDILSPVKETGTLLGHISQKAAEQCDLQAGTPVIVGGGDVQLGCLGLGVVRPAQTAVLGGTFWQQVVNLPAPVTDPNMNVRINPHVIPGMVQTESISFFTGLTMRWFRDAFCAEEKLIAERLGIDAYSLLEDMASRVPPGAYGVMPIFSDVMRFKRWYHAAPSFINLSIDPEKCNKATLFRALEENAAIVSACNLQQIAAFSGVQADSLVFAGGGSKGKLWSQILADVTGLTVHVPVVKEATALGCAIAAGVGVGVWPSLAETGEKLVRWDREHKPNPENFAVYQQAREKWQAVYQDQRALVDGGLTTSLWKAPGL
test: biochemical
Type: biochemical, S. typhimurium
metricName: pIC50
Numbers only, as −log10 of the molar value.

// known answers, use as guide
CC(=O)Oc1c2c(c(CC=C(C)C)c3c1C(=O)C1=C[C@@H]4CC5C(C)(C)OC(C/C=C(\C)C(=O)O)(C4=O)[C@@]15O3)OC(C)(CCC=C(C)C)C=C2 (some centres unmarked) [ACETYL I[…]] | 5.40
NC[C@H](O)c1ccc(O)c(O)c1 [NOREPINEPHRINE, reference compound] | 4.52
CCCCCCCCCCCCCCCCC(C(=O)O)C(O)(CC(=O)O)C(=O)O (centres unmarked) | 5.15
Cc1c(O)c(O)cc2c1CC=C1[C@@]2(C)CC[C@@]2(C)[C@@H]3C[C@](C)(C(=O)O)CC[C@]3(C)CC[C@]12C [DIHYDROCELASTROL] | 4.68

Shift focus to the following entry.
Data request: // pIC50 lookup, key: O=C(O)C1=CC(=C(c2ccc(O)c(C(=O)O)c2)c2ccc(O)c(C(=O)O)c2)C=CC1=O
Data returned: 6.00

---

Hi there, I'd appreciate the recorded inhibition at 50 µM for every entry that follows.
testSystem: LsrK (Salmonella typhimurium)
test: biochemical
Type: biochemical, S. typhimurium
Where a name gives a salt, the structure may show the parent alone.
Give bare numbers, in %.

Reference set, count: 2
COc1c2c(cc3occ(-c4ccc5c(c4)OCO5)c(=O)c13)OC(C)(C)C=C2 | 1
O=c1c2ccccc2[se]n1-c1ccccc1 | 6

# map each compound to its inhibition at 50 µM
1. COc1cc2c(cc1OC)C1(O)C(=O)c3ccc(O)c(C(=O)O)c3OC1CO2 (centres unmarked)
2. COc1cc(C2Oc3cc([C@H]4Oc5cc(O)cc(O)c5C(=O)[C@@H]4O)ccc3OC2CO)ccc1O (some centres unmarked)
3. CCC(N)C(O)c1ccc(O)c(O)c1 (centres unmarked) [ETHYLNOREPINEPHRINE HYDROCHLORIDE]

Data returned:
1. 3
2. 27
3. 4

---

testSystem: LsrK (Salmonella typhimurium)
test: biochemical
Type: biochemical, S. typhimurium
conditionSummary: 50 µM
metricName: Inhibition (%)
Numbers only.

CC(=O)O[C@H]1CC[C@@]2(C)C(=CC=C3[C@@H]4CC[C@H]([C@H](C)/C=C/[C@H](C)C(C)C)[C@@]4(C)CC[C@@H]32)C1 [ERGOSTEROL ACETATE] | 2
CC12CCC3C(CC3(C)C)C(C)(CCC1=O)O2 (stereo not drawn) [3.7-EPOXYCARYOPHYLLAN-6-ONE] | 1
CC(=O)OCC(OC(C)=O)C(OC(C)=O)C(OC(C)=O)C(OC(C)=O)C(COC(C)=O)OC(C)=O (stereo not drawn) [PERSITOL HEPTAACETATE] | 3
CC[C@H](CC[C@@H](C)[C@H]1CC[C@H]2[C@@H]3CC[C@H]4C[C@@H](O)CC[C@]4(C)[C@H]3CC[C@]12C)C(C)C [FUCOSTANOL] | 1
O=C(O)c1nc2cc(Cl)c(Cl)cc2nc1O | 1
C=CC[S+]([O-])C[C@H](N)C(=O)O (mixture of isomers) [L(+/-)-ALLIIN] | 44
O=c1cccc2ccc(O)c(O)c2c1O [PYROGALLIN] | 101
O=C(O[C@@H]1Cc2c(O)cc(O)cc2O[C@@H]1c1cc(O)c(O)c(O)c1)c1cc(O)c(O)c(O)c1 [EPIGALLOCATECHIN-3-MONOGALLATE] | 87
O=C([O-])CN(CCN(CC(=O)[O-])CC(=O)O)CC(=O)[O-].[Na+].[Na+].[Na+] [TRISODIUM ETHYLENEDIAMINE TETRACETATE] | 1
CCC(C)C(=O)O[C@@H]1C[C@@]2(C)[C@H](c3ccoc3)OC(=O)CC23OC2(C)OC34[C@H](OC(=O)C(C)C)[C@@]3(O)[C@@H](OC(=O)C5(C)OC5C)[C@@]5(C)C[C@]3(O)[C@@](C)([C@H]5CC(=O)OC)C14O2 (stereo partly drawn) [ENTANDROPHRAGMIN] | 1

Go through the list and state Inhibition (%) for each entry.
1. Cl.N=C(N)NCCC[C@H](N)C(=O)O [ARGININE HYDROCHLORIDE]
2. C[N+](C)(C)CC(O)CC(=O)O.[Cl-] (stereo not drawn) [CARNITINE (dl) HYDROCHLORIDE]

Data returned:
1
3

Could you report Inhibition (%) for every entry in the following list?
1. CCOc1ccc(C(=O)c2ccc(OC)c(O)c2O)cc1
2. CC(=O)O[C@@H]1CC2C(C)(C)[C@H](O)CC[C@]2(C)C2CC[C@@]3(C)[C@H](c4ccoc4)OC(=O)C4OC43[C@@]21C (stereo partly drawn) [alpha-DIHYDROGEDUNOL]

Data returned:
16
1

Data request: What value of measured Inhibition (%) is listed for CC(=O)OCC1=C(C(=O)O)N2C(=O)[C@@H](N)[C@H]2SC1 [7-AMINOCEPHALOSPORANIC ACID] ?
Data returned: 64

Hey, just so you know, these numbers are from paper PMC6627609.
